measured_target: pEGFR, NCI-H1975 cells (L858R/T790M EGFR) (Homo sapiens, UniProt P00533, L858R/T790M)
Construct: pEGFR (Tyr1068) TR-FRET
Sequence (P00533 25-1210 T790M/L858R): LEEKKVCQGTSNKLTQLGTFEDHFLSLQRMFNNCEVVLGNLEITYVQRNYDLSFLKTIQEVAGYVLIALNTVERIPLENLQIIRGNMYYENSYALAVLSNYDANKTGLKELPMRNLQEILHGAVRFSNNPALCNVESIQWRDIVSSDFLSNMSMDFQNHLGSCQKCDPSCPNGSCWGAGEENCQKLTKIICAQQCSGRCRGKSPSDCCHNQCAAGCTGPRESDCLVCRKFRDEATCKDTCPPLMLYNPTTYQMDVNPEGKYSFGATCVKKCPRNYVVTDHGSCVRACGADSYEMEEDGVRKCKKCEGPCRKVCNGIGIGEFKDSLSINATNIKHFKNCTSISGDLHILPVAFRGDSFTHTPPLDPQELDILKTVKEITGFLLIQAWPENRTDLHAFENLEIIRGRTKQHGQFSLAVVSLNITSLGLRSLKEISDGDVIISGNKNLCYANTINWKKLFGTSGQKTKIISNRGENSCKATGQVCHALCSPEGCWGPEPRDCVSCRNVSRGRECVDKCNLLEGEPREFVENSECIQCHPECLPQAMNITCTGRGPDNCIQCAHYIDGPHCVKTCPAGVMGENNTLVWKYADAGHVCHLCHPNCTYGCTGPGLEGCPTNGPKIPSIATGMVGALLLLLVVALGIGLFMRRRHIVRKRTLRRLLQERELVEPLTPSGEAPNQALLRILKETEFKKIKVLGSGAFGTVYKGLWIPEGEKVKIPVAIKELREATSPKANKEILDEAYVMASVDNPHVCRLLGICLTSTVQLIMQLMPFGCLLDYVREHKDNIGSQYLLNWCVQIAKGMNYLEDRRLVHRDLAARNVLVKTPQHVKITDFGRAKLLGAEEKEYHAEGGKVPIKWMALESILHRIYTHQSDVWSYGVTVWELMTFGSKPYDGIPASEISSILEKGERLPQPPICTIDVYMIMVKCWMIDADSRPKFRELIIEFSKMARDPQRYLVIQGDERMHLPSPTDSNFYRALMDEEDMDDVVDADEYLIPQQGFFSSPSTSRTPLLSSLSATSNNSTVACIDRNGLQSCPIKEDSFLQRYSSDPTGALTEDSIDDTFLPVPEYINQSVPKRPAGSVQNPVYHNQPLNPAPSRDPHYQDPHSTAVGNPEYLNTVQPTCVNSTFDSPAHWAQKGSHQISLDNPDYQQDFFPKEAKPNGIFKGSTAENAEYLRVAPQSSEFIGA
assay_summary: Cellular EGFR phosphorylation assay (LANCE Ultra TR-FRET) in NCI-H1975 cells
Format: cell-based
applied_conditions: 4 hours at 37° C., read-out: H1975 pEGFR IC50
property_label: IC50 (nM)

Cc1nn(C)c2c1-c1cc3c(n[nH]c3c(C)n1)/C=C/c1c(OCC#N)nn(CCO)c1CN(C)C[C@H](C)O2 [Ex. 63]: 3.31
CCOc1nn(CCO)c2c1/C=C/c1n[nH]c3cnc(cc13)-c1c(C)nn(C)c1O[C@@H](C)[C@H]1CCCN1C2 [Ex. 32]: 1.48
CC(C)Oc1nn(CCO)c2c1/C=C/c1n[nH]c3cnc(cc13)-c1cnn(C)c1O[C@H](C)CN(C(C)C)C2 [Ex. 3]: 6.43
Cc1nc2cc3c(n[nH]c13)/C=C/c1c(OC(C)C)nn(CCO)c1CN(C)C[C@H](C)Oc1c-2cnn1C [Ex. 40]: 1.6
CCN1Cc2c(c(C)nn2CCO)/C=C/c2n[nH]c3cnc(cc23)-c2c(C)nn(C)c2O[C@@H](C)C1 [Ex. 13]: 2.09

[I] CCOc1nn(C[C@H](C)O)c2c1/C=C/c1n[nH]c3c(C)nc(cc13)-c1c(C)nn(C)c1O[C@@H](C)CN(C)C2 [Ex. 90]
[II] CCOc1nn(CCO)c2c1/C=C/c1n[nH]c3c(C)nc(cc13)-c1cnn(C)c1O[C@H](C)CN(C)C2 [Ex. 38]
[III] CCOc1nn([C@@H](C)CO)c2c1/C=C/c1n[nH]c3c(C)nc(cc13)-c1c(C)nn(C)c1O[C@@H](C)CNC2 [Ex. 91]
[IV] CCOc1nn(CCO)c2c1/C=C/c1n[nH]c3cnc(cc13)-c1c(C)nn(C)c1OC[C@@H](C)N(CC)C2 [Ex. 18]
Rank items: key IC50, increasing. Order the labels as requested and list them. I, II, IV, III

[A] CCOc1nn(CCO)c2c1/C=C/c1n[nH]c3cnc(cc13)-c1c(C)nn(C)c1O[C@H](C)CN(CC)C2 [Ex. 17]
[B] CCOc1nn(CCO)c2c1/C=C/c1n[nH]c3c(C)nc(cc13)-c1c(C)nn(C)c1O[C@H](C)[C@H]1CCCN1C2 [Ex. 178]
Which value of IC50 is smaller, the one for A or the one for B ? Record your answer as the label of the chosen record. B

[I] [2H]C([2H])([2H])C([2H])([2H])Oc1nn([C@@H](C)CO)c2c1/C=C/c1n[nH]c3cnc(cc13)-c1c(C)nn(C)c1O[C@@H](C)CN(C)C2 [Ex. 87]
[II] Cc1nn(CCO)c2c1/C=C/c1n[nH]c3cnc(cc13)-c1c(C)nn(C)c1O[C@H](C)CN(C(C)C)C2 [Ex. 20]
For the pair I and II , which member has the lower IC50 number? Kindly give the label for the entry you pick. I

The measurements presented in this section are drawn from patent US20260317344A1.
